# target.system: 5-lipoxygenase (Rattus norvegicus, UniProt P12527)
# Construct: endogenous in cells; host or cells: casein-elicited peritoneal polymorphonuclear leukocytes of male Sprague-Dawley rats
# Sequence (P12527 whole entry): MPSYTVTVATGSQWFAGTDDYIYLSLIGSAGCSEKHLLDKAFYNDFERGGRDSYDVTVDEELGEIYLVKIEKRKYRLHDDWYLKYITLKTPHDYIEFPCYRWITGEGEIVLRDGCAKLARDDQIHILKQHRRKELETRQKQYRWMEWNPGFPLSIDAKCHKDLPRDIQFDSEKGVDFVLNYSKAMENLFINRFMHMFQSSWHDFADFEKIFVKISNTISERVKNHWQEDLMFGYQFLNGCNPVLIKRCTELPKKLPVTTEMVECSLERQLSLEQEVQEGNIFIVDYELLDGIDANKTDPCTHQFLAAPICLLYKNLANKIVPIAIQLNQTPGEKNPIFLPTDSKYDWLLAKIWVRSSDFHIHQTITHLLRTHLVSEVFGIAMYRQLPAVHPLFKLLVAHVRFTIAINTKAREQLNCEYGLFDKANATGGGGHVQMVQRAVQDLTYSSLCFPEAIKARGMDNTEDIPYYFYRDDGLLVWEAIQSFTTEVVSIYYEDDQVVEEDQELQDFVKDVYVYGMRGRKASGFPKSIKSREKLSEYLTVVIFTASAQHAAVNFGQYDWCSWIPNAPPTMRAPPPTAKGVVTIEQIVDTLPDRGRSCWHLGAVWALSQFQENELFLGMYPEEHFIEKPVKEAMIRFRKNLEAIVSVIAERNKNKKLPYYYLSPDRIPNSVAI
# assay.notes: PMN5LO assay: inhibition of LTB4 production in A23187-stimulated rat peritoneal PMN (RIA)
# Assay type: cell-based
# details: 0.037 μg/ml
measurement.type: inhibition at 0.037 µg/mL (%)

- molecule: "COc1cc(-c2ccccc2)sc1-c1ccccc1"
  observed.result: 0

P: CC(=O)Oc1cc(-c2ccccc2)sc1-c1ccccc1
Q: CC(=O)Oc1csc(-c2ccccc2)c1
R: CC(=O)Oc1cc(-c2ccccc2)sc1-c1ccccc1C
S: CC(=O)Oc1cc(-c2ccccc2)oc1-c1ccccc1
List the 4 entries from lowest inhibition at 0.037 µg/mL to highest inhibition at 0.037 µg/mL value. // ordering of labels required in reply
Q, S, R, P

Data provenance: patent US4999436A
